experiment: Confirmatory Assay to Find Inhibitors of T. brucei phosphofructokinase: Cytotoxictity in MRC5; details: cell viability; MRC5 cytotoxicity; series mostly up to 46.1 µM
The source made the active and inactive calls. Calls come from the whole dose curve; as a rule, active = well fitted curve in the direction sought with a large enough effect; inconclusive = small, poorly fitted or top-dose-only effect, or another doubt; inactive = no such curve, though single readings can be large or run the other way.
Classes used: 1 (active), 0 (inactive)

> print(dat)
                         structure.as.smiles  assigned.category
 1  Cc1cc(NS(=O)(=O)c2ccc(NC(=O)Cc3ccc4ccccc4c3)cc2)no1                  0
 2  COc1ccc(CC(=O)Nc2ccc(S(=O)(=O)Nc3cc(C)on3)cc2)cc1C                  0
 3  Cc1cc(NS(=O)(=O)c2ccc(C(=O)NCc3ccc(Cl)c(Cl)c3)cc2)no1                  0
 4  Cc1cc(NS(=O)(=O)c2ccc(NC(=O)Cc3ccccc3)cc2)no1                  0
 5  Cc1cc(N(C)S(=O)(=O)c2ccc(NC(=O)Cc3ccc(Cl)c(Cl)c3)cc2)no1                  1
 6  COc1ccc(CC(=O)Nc2ccc(S(=O)(=O)Nc3cc(C)on3)cc2)cc1OC                  0
 7  O=C(Cc1ccc(Cl)c(Cl)c1)Nc1ccc(S(=O)(=O)Nc2ccccc2)cc1                  0
 8  Cc1cc(NS(=O)(=O)c2ccc(NCCc3ccc(Cl)c(Cl)c3)cc2)no1                  0
 9  Cc1cc(NS(=O)(=O)c2ccc(NC(=O)C(C)(C)c3ccc(Cl)c(Cl)c3)cc2)no1                  0
10  Cc1cc(NS(=O)(=O)c2ccc(NC(=O)CCc3ccc(Cl)c(Cl)c3)cc2)no1                  0
